SYSTEM TESTED: Ba/F3 cells with EGFR WT (Homo sapiens, UniProt P00533)
Sequence (P00533 25-1210): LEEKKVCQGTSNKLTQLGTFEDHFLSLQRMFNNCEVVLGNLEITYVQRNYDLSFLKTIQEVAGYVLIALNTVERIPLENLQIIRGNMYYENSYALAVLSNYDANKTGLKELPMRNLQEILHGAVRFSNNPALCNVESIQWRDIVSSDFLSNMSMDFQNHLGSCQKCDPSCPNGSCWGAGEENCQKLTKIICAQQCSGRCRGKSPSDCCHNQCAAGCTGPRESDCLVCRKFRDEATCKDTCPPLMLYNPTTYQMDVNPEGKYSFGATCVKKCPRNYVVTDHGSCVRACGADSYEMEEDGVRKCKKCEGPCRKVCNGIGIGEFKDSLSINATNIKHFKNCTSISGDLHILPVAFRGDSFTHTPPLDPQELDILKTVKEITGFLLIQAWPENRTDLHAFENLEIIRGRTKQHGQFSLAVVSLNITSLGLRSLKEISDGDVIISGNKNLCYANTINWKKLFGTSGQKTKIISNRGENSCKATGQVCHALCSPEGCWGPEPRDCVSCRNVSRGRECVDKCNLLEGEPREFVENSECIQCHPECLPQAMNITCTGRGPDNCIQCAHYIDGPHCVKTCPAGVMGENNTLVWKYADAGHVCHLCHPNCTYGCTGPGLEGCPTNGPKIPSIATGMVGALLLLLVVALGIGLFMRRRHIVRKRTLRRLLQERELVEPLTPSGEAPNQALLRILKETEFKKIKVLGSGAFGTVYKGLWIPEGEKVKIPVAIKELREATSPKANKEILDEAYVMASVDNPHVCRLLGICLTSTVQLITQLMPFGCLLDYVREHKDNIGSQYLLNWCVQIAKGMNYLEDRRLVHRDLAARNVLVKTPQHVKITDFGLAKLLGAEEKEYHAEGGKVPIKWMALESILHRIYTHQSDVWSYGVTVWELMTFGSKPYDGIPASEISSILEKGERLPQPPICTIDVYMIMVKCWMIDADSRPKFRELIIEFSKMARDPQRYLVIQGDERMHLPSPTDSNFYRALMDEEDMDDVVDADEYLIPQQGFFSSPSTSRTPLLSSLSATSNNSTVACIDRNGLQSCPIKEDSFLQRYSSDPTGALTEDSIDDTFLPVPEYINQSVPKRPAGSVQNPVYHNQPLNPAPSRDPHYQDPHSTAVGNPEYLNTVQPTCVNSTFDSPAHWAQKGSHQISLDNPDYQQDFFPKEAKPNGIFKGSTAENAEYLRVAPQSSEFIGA
ASSAY METHOD TEXT: EGFR activity: Ba/F3 cell viability (CellTiter-Glo, 72 h), EGFR WT
APPLIED CONDITIONS: read-out: BaF3 WT IC50
pIC50: −log10 of the molar value.
OUTCOME MEASURE: pIC50

The compound C=CC(=O)N1[C@H](COc2cnccc2-c2[nH]c3c(c2Nc2cccc(Cl)c2OC)C(=O)NCC3)C[C@@H]1C showed pIC50 equal to > 7.00

The compound C=CC(=O)NC1(C#Cc2cnccc2-c2[nH]c3c(c2Nc2cccc(F)c2OC)C(=O)NCC3)CCOCC1 showed pIC50 equal to < 6.00

The compound COc1c(F)cccc1Nc1c(-c2ccncc2OCc2cnc3n2CCC3)[nH]c2c1C(=O)NCC2 showed pIC50 equal to < 6.00

The compound C=CC(=O)N1CCC[C@]1(C)C#Cc1cnccc1-c1[nH]c2c(c1Nc1cccc(F)c1C)C(=O)NCC2 showed pIC50 equal to > 7.00

The compound COc1c(F)cccc1Nc1c(-c2ccncc2C#C[C@@H]2CCC[C@@H]2OC)[nH]c2c1C(=O)NCC2 showed pIC50 equal to < 6.00

* * *

SYSTEM TESTED: Ba/F3 cells with EGFR exon 20 NPG Ins D770_N771 (Homo sapiens, UniProt P00533, INS770NPG)
Sequence (P00533 with tags, fused parts or gaps INS770NPG): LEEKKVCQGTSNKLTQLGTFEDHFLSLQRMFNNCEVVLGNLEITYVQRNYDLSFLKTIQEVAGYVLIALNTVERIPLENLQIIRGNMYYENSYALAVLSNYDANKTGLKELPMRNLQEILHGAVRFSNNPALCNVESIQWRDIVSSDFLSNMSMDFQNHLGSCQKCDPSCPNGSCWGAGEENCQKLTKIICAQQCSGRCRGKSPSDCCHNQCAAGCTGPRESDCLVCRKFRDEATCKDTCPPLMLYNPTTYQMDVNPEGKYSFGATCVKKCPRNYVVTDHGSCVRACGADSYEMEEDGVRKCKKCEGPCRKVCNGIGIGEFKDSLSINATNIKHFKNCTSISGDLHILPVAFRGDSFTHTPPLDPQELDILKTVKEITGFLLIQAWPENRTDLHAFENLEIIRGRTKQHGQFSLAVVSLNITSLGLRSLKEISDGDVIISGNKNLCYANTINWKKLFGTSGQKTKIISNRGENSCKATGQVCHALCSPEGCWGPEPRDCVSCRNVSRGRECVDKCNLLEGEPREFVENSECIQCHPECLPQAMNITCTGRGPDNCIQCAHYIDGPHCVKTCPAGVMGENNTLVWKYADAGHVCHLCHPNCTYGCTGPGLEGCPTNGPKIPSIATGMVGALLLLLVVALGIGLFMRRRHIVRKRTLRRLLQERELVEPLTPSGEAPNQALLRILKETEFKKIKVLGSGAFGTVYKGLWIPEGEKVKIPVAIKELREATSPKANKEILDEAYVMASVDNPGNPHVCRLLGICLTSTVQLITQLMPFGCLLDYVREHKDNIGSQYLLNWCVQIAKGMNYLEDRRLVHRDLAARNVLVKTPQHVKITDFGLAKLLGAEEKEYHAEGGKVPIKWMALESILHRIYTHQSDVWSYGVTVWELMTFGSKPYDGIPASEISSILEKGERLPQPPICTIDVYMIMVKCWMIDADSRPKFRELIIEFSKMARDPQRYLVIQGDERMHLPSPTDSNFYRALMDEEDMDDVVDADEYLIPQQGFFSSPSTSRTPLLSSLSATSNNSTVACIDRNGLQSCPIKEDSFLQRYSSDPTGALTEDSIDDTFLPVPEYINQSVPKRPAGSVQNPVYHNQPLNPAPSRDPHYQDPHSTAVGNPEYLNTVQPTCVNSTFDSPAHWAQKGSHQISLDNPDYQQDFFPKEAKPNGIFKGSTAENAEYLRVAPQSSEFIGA
ASSAY METHOD TEXT: EGFR activity: Ba/F3 cell viability (CellTiter-Glo, 72 h), EGFR exon 20 NPG insertion
APPLIED CONDITIONS: EGFR exon 20 NPG Ins D770_N771, cell viability, read-out: BaF3 NPG IC50
Below is a list of entries, each paired with its recorded IC50 value.

Example entries begin here.
COMPOUND	IC50
COc1c(F)cccc1Nc1c(-c2ccncc2C#CC(C)(C)OC)[nH]c2c1C(=O)NCC2 [compound 149]	100 to 1000 nM
C=CC(=O)N1CCC[C@H]1C#Cc1cnccc1-c1[nH]c2c(c1Nc1cccc(F)c1OC)C(=O)NCC2 [Compound 147a]	< 100 nM
COc1c(F)cccc1Nc1c(-c2ccncc2C#C[C@@]2(NC(=O)/C=C/CN(C)C)CCOC2)[nH]c2c1C(=O)NCC2 [compound 419]	100 to 1000 nM
COc1c(Cl)cccc1Nc1c(-c2ccncc2C#C[C@H]2CCN2C(=O)/C=C/CN(C)C)[nH]c2c1C(=O)NCC2 [compound 456]	< 100 nM

Hey, Ba/F3 cells with EGFR exon 20 NPG Ins D770_N771 (Homo sapiens, UniProt P00533, INS770NPG) data for COc1c(Cl)cccc1Nc1c(-c2ccncc2OC[C@@]2(C)CCN2C(=O)/C=C/CN(C)C)[nH]c2c1C(=O)NCC2 [compound 425] : IC50 came out at < 100 nM

Hey, Ba/F3 cells with EGFR exon 20 NPG Ins D770_N771 (Homo sapiens, UniProt P00533, INS770NPG) data for COc1c(Cl)cccc1Nc1c(-c2ccncc2C#C[C@]2(NC(=O)/C=C/CN(C)C)CCOC2)[nH]c2c1C(=O)NCC2 [compound 421] : IC50 came out at < 100 nM

* * *

SYSTEM TESTED: Ba/F3 cells with EGFR WT (Homo sapiens, UniProt P00533)
ASSAY METHOD TEXT: EGFR activity: Ba/F3 cell viability (CellTiter-Glo, 72 h), EGFR WT
APPLIED CONDITIONS: read-out: BaF3 WT IC50
OUTCOME MEASURE: IC50

CHEMICAL SMILES	IC50
COc1c(F)cccc1Nc1c(-c2ccncc2OCCOC2CC2)[nH]c2c1C(=O)NCC2	> 1000 nM
C=CC(=O)NC(C)(C)COc1cnccc1-c1[nH]c2c(c1Nc1cccc(Cl)c1OC)C(=O)NCC2	100 to 1000 nM
COc1c(F)cccc1Nc1c(-c2ccncc2C#C[C@@]2(C)CCCN2C(=O)C#CCN(C)C)[nH]c2c1C(=O)NCC2	100 to 1000 nM
COc1c(Cl)cccc1Nc1c(-c2ccncc2C#C[C@@]2(C)CCCN2C(=O)C#CCN(C)C)[nH]c2c1C(=O)NCC2	100 to 1000 nM
COc1c(Cl)cccc1Nc1c(-c2ccncc2C#C[C@@]2(NC(=O)/C=C/CN(C)C)CCOC2)[nH]c2c1C(=O)NCC2	100 to 1000 nM

The compound C=C(CN(C)C)C(=O)NC(C)(C)C#Cc1cnccc1-c1[nH]c2c(c1Nc1cccc(Cl)c1OC)C(=O)NCC2 showed IC50 equal to < 100 nM

The compound COc1c(F)cccc1Nc1c(-c2ccncc2C#C[C@@]2(C)CCCN2C(=O)/C=C/CN2CC[C@@H](OC)C2)[nH]c2c1C(=O)NCC2 showed IC50 equal to 100 to 1000 nM

* * *

SYSTEM TESTED: Ba/F3 cells with EGFR exon 20 ASV Ins V769_D770 (Homo sapiens, UniProt P00533, INS769ASV)
Sequence (P00533 with tags, fused parts or gaps INS769ASV): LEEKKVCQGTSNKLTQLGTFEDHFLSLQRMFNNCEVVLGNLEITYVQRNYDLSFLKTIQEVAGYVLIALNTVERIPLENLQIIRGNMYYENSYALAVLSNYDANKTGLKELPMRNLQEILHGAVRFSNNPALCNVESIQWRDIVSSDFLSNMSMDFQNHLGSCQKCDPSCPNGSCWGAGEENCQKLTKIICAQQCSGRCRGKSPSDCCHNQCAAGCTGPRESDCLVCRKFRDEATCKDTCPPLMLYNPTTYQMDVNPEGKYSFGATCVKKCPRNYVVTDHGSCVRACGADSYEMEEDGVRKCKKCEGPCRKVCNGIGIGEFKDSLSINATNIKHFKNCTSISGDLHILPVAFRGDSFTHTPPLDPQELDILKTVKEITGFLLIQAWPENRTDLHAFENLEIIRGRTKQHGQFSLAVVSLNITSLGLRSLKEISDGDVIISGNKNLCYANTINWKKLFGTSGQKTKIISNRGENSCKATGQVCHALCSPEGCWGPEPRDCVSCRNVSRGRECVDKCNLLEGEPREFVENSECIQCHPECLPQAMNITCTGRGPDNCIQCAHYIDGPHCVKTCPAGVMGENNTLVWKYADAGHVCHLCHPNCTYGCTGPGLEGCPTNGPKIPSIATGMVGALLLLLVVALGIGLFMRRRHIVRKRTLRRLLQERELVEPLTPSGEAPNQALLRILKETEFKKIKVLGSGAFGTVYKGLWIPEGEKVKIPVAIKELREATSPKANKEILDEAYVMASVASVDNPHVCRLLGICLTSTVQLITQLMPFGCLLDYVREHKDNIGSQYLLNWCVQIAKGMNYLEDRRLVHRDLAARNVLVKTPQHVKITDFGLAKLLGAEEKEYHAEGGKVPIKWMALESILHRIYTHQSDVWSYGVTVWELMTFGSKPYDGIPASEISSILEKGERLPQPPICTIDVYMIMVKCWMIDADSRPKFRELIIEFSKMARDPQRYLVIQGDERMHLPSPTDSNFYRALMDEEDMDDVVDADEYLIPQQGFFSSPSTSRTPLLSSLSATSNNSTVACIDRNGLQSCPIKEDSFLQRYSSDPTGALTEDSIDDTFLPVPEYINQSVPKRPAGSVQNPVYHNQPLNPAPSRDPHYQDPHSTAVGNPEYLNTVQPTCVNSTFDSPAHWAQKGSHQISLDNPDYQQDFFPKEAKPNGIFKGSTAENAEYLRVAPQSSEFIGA
ASSAY METHOD TEXT: EGFR activity: Ba/F3 cell viability (CellTiter-Glo, 72 h), EGFR exon 20 ASV insertion
APPLIED CONDITIONS: EGFR exon 20 ASV Ins V769_D770, cell viability, read-out: BaF3 ASV IC50
pIC50: −log10 of the molar value.
Below is a list of entries, each paired with its recorded pIC50 value.

Example entries begin here.
MOLECULE	OBSERVED MEASUREMENT
CC#CC(=O)N1CC[C@@H]1COc1cnccc1-c1[nH]c2c(c1Nc1cccc(Cl)c1OC)C(=O)NCC2 [compound 227]	> 7.00
C=C(F)C(=O)N1CC[C@@H]1COc1cnccc1-c1[nH]c2c(c1Nc1cc(F)cc(F)c1OC)C(=O)NCC2 [compound 365]	6.00 to 7.00
C=CC(=O)N1[C@@H](COc2cnccc2-c2[nH]c3c(c2Nc2cccc(Cl)c2OC)C(=O)NCC3)C[C@@H]1C [compound 272]	> 7.00
C=CC(=O)N1CCC[C@H]1C#Cc1cnccc1-c1[nH]c2c(c1Nc1cccc(F)c1OC)C(=O)NCC2 [Compound 147a]	> 7.00
Cc1c(F)cccc1Nc1c(-c2ccncc2C#Cc2cnn(C)c2)[nH]c2c1C(=O)NCC2 [compound 506]	6.00 to 7.00
COc1c(F)cccc1Nc1c(-c2ccncc2C#C[C@@]2(C)CCCN2C(=O)/C=C/CN2CCOCC2)[nH]c2c1C(=O)NCC2 [compound 442]	6.00 to 7.00

With those in mind, consider the next molecule.
The molecule Cc1c(F)cccc1Nc1c(-c2ccncc2C#CC(C)(C)NC(=O)/C=C/CN(C)C)[nH]c2c1C(=O)NCC2 [compound 449] showed pIC50 equal to > 7.00

* * *

SYSTEM TESTED: Ba/F3 cells with EGFR exon 20 ASV Ins V769_D770 (Homo sapiens, UniProt P00533, INS769ASV)
ASSAY METHOD TEXT: EGFR activity: Ba/F3 cell viability (CellTiter-Glo, 72 h), EGFR exon 20 ASV insertion
APPLIED CONDITIONS: EGFR exon 20 ASV Ins V769_D770, cell viability, read-out: BaF3 ASV IC50
pIC50: −log10 of the molar value.
OUTCOME MEASURE: pIC50

Example entries begin here.
COMPOUND	pIC50
COCC#Cc1cnccc1-c1[nH]c2c(c1Nc1cccc(F)c1C)C(=O)NCC2 [compound 500]	6.00 to 7.00
C=CC(=O)N1CCC[C@]1(C)C#Cc1cnccc1-c1[nH]c2c(c1Nc1cccc(F)c1C)C(=O)NCC2 [compound 304]	> 7.00
C=C(F)C(=O)N1CC[C@@H]1COc1cnccc1-c1[nH]c2c(c1Nc1cccc(F)c1C)C(=O)NCC2 [compound 567]	6.00 to 7.00
C=CC(=O)N1CCC[C@@H]1COc1cnccc1-c1[nH]c2c(c1Nc1cccc(Cl)c1OC)C(=O)NCC2 [Compound 138a]	> 7.00

The compound C=CC(=O)N1CCC[C@H]1COc1cnccc1-c1[nH]c2c(c1Nc1cccc(F)c1CC)C(=O)NCC2 [compound 211] showed pIC50 equal to > 7.00
